Collected logP values appear next to each entry.
Experiment: physchem
Conditions: octanol/water
Description: Partition coefficient (logP)
Would you mind answering with just the numeric figure?

Use these answered entries as a reference point.
compound=COc1cc2c(c(OC)c1OC)-c1ccc(SC)c(=O)cc1[C@@H](NO[C@H]1O[C@@H](CO)[C@H](O)[C@@H](O)[C@@H]1O)CC2 quantitativeresult=1.25
compound=COc1c(CO)c2c(c(OC)c1OC)-c1ccc(OC)c(=O)cc1[C@@H](NC(C)=O)CC2 quantitativeresult=4.58
compound=COc1c(C=O)c2c(c(OC)c1OC)-c1ccc(OC)c(=O)cc1[C@@H](NC(C)=O)CC2 quantitativeresult=5.92
compound=COc1cc2c(c(OC)c1OC)-c1ccc(SC)c(=O)cc1[C@@H](NO[C@H]1OC[C@@H](O)[C@@H](O)[C@@H]1O)CC2 quantitativeresult=1.4

Data request: Read the entry `COc1c(C#N)c2c(c(OC)c1OC)-c1ccc(OC)c(=O)cc1[C@@H](NC(C)=O)CC2` and write its reported logP.
Data returned: 4.46

Data request: Read the entry COC1=C2C(=CC(=O)C1OC)CC[C@H](NC(C)=O)c1cc(=O)c(OC)ccc12 (some centres not stated) and write its reported logP.
Data returned: 0.93

Data request: Read the entry `COc1cc2c(c(OC)c1OC)-c1ccc(SC)c(=O)cc1[C@@H](NO[C@H]1O[C@@H](COC(C)=O)[C@H](OC(C)=O)[C@@H](OC(C)=O)[C@@H]1OC(C)=O)CC2` and write its reported logP.
Data returned: 4.61
